Test system: EKVX NSCLC
Assay: NCI tumour cell line growth inhibition, 48 h
OBSERVABLE: GI50

Sample answers from the record:
# COMPOUND, RESULT
rows = [
    ("O=[N+]([O-])c1ccc(Sc2cccc[n+]2[O-])c2nonc12", "9.59 µM"),
    ("O=C(CCN1CCCC1)Nc1ccc2c(Nc3ccc(F)cc3)c3ccccc3nc2c1", "1.89 µM"),
    ("CN(C)Cc1ccc(NC(=O)c2cncc(C#Cc3cnc(N)c4ncccc34)c2)cc1C(F)(F)F", "1.71 µM"),
]

Challenge: // GI50 lookup, key: "C[C@H]1C[C@@H](n2c(Nc3ccc(OC(F)(F)F)cc3)nc3cc(CCC(=O)O)ccc32)CC(C)(C)C1"
Response given: 10.5 µM

Challenge: Same for "O=[N+]([O-])c1ccccc1/C=N\NC(=S)N/N=C/c1ccccc1[N+](=O)[O-]"
Response given: 8.11 µM

Challenge: Proceed to "N.N.N.N.N#N.N#N.[Cl-].[Os+6]"
Response given: > 100 µM

Challenge: Let us now turn to "COC(=O)CNC(=O)C(=O)c1c(O)c(O)c(C(C)C)c2cc(C)c(-c3c(C)cc4c(C(C)C)c(O)c(O)c(C(=O)C(=O)NCC(=O)OC)c4c3O)c(O)c12"
Response given: 1.2 µM

Challenge: Cool, now "COc1ccc(-c2cn(C)c3c2-n2cccc2C3=O)cc1O"
Response given: 14.6 µM

Challenge: Record: "COc1cc(C[C@H]2COC(=O)[C@]2(O)Cc2ccc(OCc3ccccc3)c(OC)c2)ccc1OCc1ccccc1"
Response given: 24.2 µM

Challenge: Moving on to the next compound: NC(CSC(c1ccccc1)(c1ccccc1)c1ccccc1)C(=O)O (stereo unspecified)
Response given: 3.24 µM

Challenge: One more compound: "COc1ccc(-n2nc(C)c3c(Nc4ccc(NC(=O)Nc5cccc(C(F)(F)F)c5)cc4)ncnc32)cc1"
Response given: 1.93 µM

* * *

Tested on: T-47D breast
Test: NCI tumour cell line growth inhibition, 48 h
Some compounds, each annotated with its measured TGI.

Example entries begin here.
# COMPOUND, TGI
data = [
    ("O=C(CCCc1cccc2[nH]c3c(c12)CN(Cc1ccccc1)CC3)c1ccc(F)cc1", "> 58.7 µM"),
    ("O=C(CSSCC(=O)c1ccc(Cl)cc1)c1ccc(Cl)cc1", "45.2 µM"),
    ("CN1C/C(=C\\c2cccs2)C2=NN(c3ccccc3)C(c3cccs3)C2C1 (centres undefined)", "96.3 µM"),
    ("O=CNC(Cc1cnc[nH]1)C(=O)O (centres undefined)", "> 100 µM"),
]

Challenge: What value of TGI has been reported for the following compound? "O=C1c2ccccc2C(=O)N1c1ccc(Cc2ccc(N3C(=O)c4ccccc4C3=O)cc2)cc1"
Response given: > 100 µM

Challenge: Then this compound: "COc1ccc(-n2cc(-c3cc(OC)c(OC)c(OC)c3)nc2SCc2cccc(C#N)c2)cc1OC"
Response given: > 100 µM

Challenge: Please answer likewise for "OCc1c(-c2cccs2)oc(-c2cccs2)c1CO"
Response given: > 100 µM

Challenge: Further, for "CC(C)(C)OC(=O)N(CCCCN(CCCn1c2c(c3ccccc3c1=O)C(=O)c1ccccc1-2)C(=O)OC(C)(C)C)CCCn1c2c(c3ccccc3c1=O)C(=O)c1ccccc1-2" ?
Response given: > 100 µM

Challenge: Please give the result for "O=C(COc1cc(=O)oc2ccccc12)c1ccccc1" too.
Response given: > 100 µM

Challenge: Now try COC(=O)C1(Cc2ccc3c(c2)CCC3)Cc2ccc3c(c2C1=O)CCC3 (centres undefined) .
Response given: > 68.6 µM

Challenge: Also check "COc1cc(C[C@@]2(C)[C@@H]3CCC[C@H](CO)[C@@]3(C)CC[C@@H]2C)c(Cl)c(OC)c1"
Response given: 22.9 µM

Challenge: Request: "Nc1c(C(=O)c2cccc(-c3cccnc3)c2)cnn1-c1ccc(F)cc1"
Response given: > 25 µM

Challenge: Next compound up: "Cc1[nH]c(=O)nc(N/N=C/c2c3ccccc3c(Cl)c3ccccc23)c1C(=O)Nc1ccc(Cl)cc1"
Response given: > 100 µM

Challenge: Same for "Nc1n[n+]([O-])c2ccc(Cl)cc2[n+]1[O-]"
Response given: 99.4 µM

Challenge: And what about the compound "Cc1[nH]n(-c2nc(-c3ccccc3)cc(=O)[nH]2)c(=O)c1CCO" ?
Response given: > 100 µM

Challenge: Next entry: "COc1ccc(SCc2cc(OC)ccc2OC)cc1"
Response given: > 100 µM

* * *

System: NCI/ADR-RES ovarian
Assay: NCI tumour cell line growth inhibition, 48 h
OBSERVABLE: TGI

Worked set:
# COMPOUND, TESTED_TARGET, RESULT
records = [
    ("CN[C@@H](C)C(=O)N[C@H](C(=O)N1CCC[C@H]1c1nc(C(=O)c2ccc(F)cc2)cs1)C1CCCCC1", "NCI/ADR-RES ovarian", "> 66 µM"),
    ("CCN(CC)CCC(=O)/C=C/c1ccc(Cl)c(Cl)c1", "NCI/ADR-RES ovarian", "4.66 µM"),
    ("CC1[C@@]2(O[C@@H]3C=C4C5CCC6Cc7nc8c(nc7C[C@@]6(C)C5C[C@H](O)[C@@]4(C)[C@]13O)CC1CCc3c(cc4c5c3C(O)C[C@H]5[C@@H](C)C3(O4)OC(C)(C)CC3O)[C@]1(C)C8)O[C@@](C)(CO)C[C@@H]2O (stereo not given in full)", "NCI/ADR-RES ovarian", "> 3.72 µM"),
    ("Nc1nc(N)nc(CCCCc2nc(N)nc(N)n2)n1", "NCI/ADR-RES ovarian", "> 100 µM"),
    ("CCOC(=O)NC(Nc1ccc(F)cc1F)(C(F)(F)F)C(F)(F)F", "NCI/ADR-RES ovarian", "> 100 µM"),
]

Challenge: Look at this compound and give its reported TGI. "O=C1C=C(NCCc2ccc(O)c([N+](=O)[O-])c2)C(=O)c2[nH]cnc21"
Response given: > 100 µM

Challenge: Try this compound next: "Cc1nc2c(Cl)cc(Cl)cc2c2c1CCO2"
Response given: > 100 µM

Challenge: Likewise for COP(=O)(OC)C(N)Cc1c[nH]c2ccccc12 (stereo not given) ?
Response given: > 100 µM

Challenge: One more compound: "CN(C)Cc1ccc(NC(=O)c2cncc(C#Cc3cnc(N)c4ncccc34)c2)cc1C(F)(F)F"
Response given: 3.67 µM

Challenge: Also, "NCCCn1c(Cl)nc2ccccc21" please.
Response given: > 100 µM

Challenge: Now give it for "C[C@H]1C[C@@H](n2c(Nc3ccc(OC(F)(F)F)cc3)nc3cc(CCC(=O)O)ccc32)CC(C)(C)C1" too.
Response given: 27.5 µM

Challenge: Could you do the same for "O=C(O)c1ccc2c(O)c(O)ccc2c1" , please?
Response given: 55.3 µM

Challenge: Moving on to the next compound: O=CNC(Cc1cnc[nH]1)C(=O)O (stereo not given)
Response given: > 100 µM

Challenge: Can you handle "O=C(NC(=S)Nc1ccc(Br)cc1)c1ccc2c(c1)Sc1ccccc1O2" next?
Response given: > 100 µM

Challenge: Now this one: "COc1cc(C[C@@]2(C)[C@@H]3CCC[C@H](CO)[C@@]3(C)CC[C@@H]2C)c(Cl)c(OC)c1"
Response given: 31.3 µM

Challenge: Another compound to look at: "Nc1cc(CO)cc(Nc2c3ccccc3nc3ccccc23)c1"
Response given: 35.8 µM

Challenge: Can you check Cc1cc(=O)[nH]c2cc(NC(=O)C(C)NC(=O)C(C)NC(=O)C(C)NC(=O)OC(C)(C)C)ccc12 (stereo not given) next?
Response given: > 15 µM

Challenge: Likewise for "O=C(N/N=C\c1ccc(Cl)cc1)Nc1ccc2ccccc2c1" ?
Response given: > 100 µM

Challenge: Entry to check: "COc1ccc([N+](=O)[O-])c2c(NCCCN(C)C)c(C)c(C)nc12"
Response given: > 100 µM

Challenge: Cool, now "O=C(Nc1ccccc1C(=O)NCc1ccccc1)/C(=C/c1ccccc1O)NC(=O)c1ccccc1"
Response given: > 100 µM

* * *

Test system: MDA-MB-231 breast
Assay: NCI tumour cell line growth inhibition, 48 h; in the data active means GI50 below about 0.43 µM; inactive means the rest
Respond with a class label; see T (active), F (inactive)

# COMPOUND, GROUP
measured = [
    ("CN[C@@H](C)C(=O)N[C@H](C(=O)N1CCC[C@H]1c1nc(C(=O)c2ccc(F)cc2)cs1)C1CCCCC1", "T"),
    ("CC(C)(C)OC(=O)NCCCCCCCCCn1c2c(c3ccccc3c1=O)C(=O)c1ccccc1-2", "F"),
]

Challenge: Any idea what this test logged for "C[C@H]1C[C@@H](n2c(Nc3ccc(OC(F)(F)F)cc3)nc3cc(CCC(=O)O)ccc32)CC(C)(C)C1" ?
Response given: F

Challenge: Repeat with "COC(=O)CNC(=O)C(=O)c1c(O)c(O)c(C(C)C)c2cc(C)c(-c3c(C)cc4c(C(C)C)c(O)c(O)c(C(=O)C(=O)NCC(=O)OC)c4c3O)c(O)c12"
Response given: F

Challenge: Follow-up item: "Cc1cccc(CNc2c3ccccc3nc3ccccc23)c1"
Response given: F

Challenge: Try this compound next: CCC/C=C/C=C/C(=O)OC1/C(=C/C(=O)OC)CC2CC(C(C)O)OC(=O)CC(O)CC3CC(OC(C)=O)C(C)(C)C(O)(CC4C/C(=C/C(=O)OC)CC(/C=C/C(C)(C)C1(O)O2)O4)O3 (stereo unspecified)
Response given: F
